test system: SPI1 type III protein secretion system (SipB secretion); assay: Secondary assay: Type III-dependent protein secretion of the SipB polypeptide by S. enterica (immunoblot); type: cell-based; details: Salmonella enterica, read-out: SipB IC50(uM)
READOUT NAME: IC50

Enquiry: Would you kindly share the measured IC50 for O=C(Nc1cc(-c2ccc(Cl)cc2)cn(C(Cc2ccc(Cl)cc2)C(=O)O)c1=O)c1ccc(-c2ccccc2)cc1 (stereo not shown) [Compound 33] ?
Return: 39 µM

Enquiry: Would you kindly share the measured IC50 for CC(=O)Nc1cccc(-c2cc(NC(=O)c3ccc(C(F)(F)F)cc3)c(=O)n(C(Cc3ccc(Cl)cc3)C(=O)O)c2)c1 (stereo not shown) [Compound 28] ?
Return: > 100 µM

Enquiry: Would you kindly share the measured IC50 for O=C(Nc1cc(-c2ccccc2)cn(C(Cc2ccc(Cl)cc2)C(=O)O)c1=O)c1ccc(-c2ccccc2)cc1 (stereo not shown) [Compound 32] ?
Return: > 100 µM

Enquiry: Would you kindly share the measured IC50 for O=C(Nc1cc(-c2ccccc2Oc2ccccc2)cn([C@@H](COCc2ccccc2)C(=O)O)c1=O)c1ccc(C(F)(F)F)cc1 [Compound 10] ?
Return: 37.4 µM

Enquiry: Would you kindly share the measured IC50 for CC(C)Oc1ccc(-c2cc(NC(=O)c3ccc(C(F)(F)F)cc3)c(=O)n([C@@H](COCc3ccccc3)C(=O)O)c2)cc1 [Compound 12] ?
Return: > 100 µM

Enquiry: Would you kindly share the measured IC50 for O=C(Nc1cc(-c2ccccc2Oc2ccccc2)cn(C(Cc2ccc(Cl)cc2)C(=O)O)c1=O)c1ccc(-c2ccccc2)cc1 (stereo not shown) [Compound 49] ?
Return: 48 µM

Enquiry: Would you kindly share the measured IC50 for O=C(Nc1cc(-c2cncnc2)cn([C@@H](Cc2ccccc2)C(=O)O)c1=O)c1ccc(C(F)(F)F)cc1 [Compound 7] ?
Return: > 100 µM

---

system: SPI1 type III protein secretion system (SipB secretion); experiment: Secondary assay: Type III-dependent protein secretion of the SipB polypeptide by S. enterica (immunoblot); format: cell-based; conditions: Salmonella enterica, read-out: SipB IC50(uM)
READOUT NAME: IC50

Enquiry: Query IC50 on SPI1 type III protein secretion system (SipB secretion) for O=C(Nc1cc(-c2ccc(C(F)(F)F)cc2)cn(C(Cc2ccc(Cl)cc2)C(=O)O)c1=O)c1ccc(Oc2ccccc2)cc1 (centres unmarked) [Compound 54]
Return: > 100 µM

Enquiry: Query IC50 on SPI1 type III protein secretion system (SipB secretion) for O=C(Nc1cc(-c2ccc3ccccc3c2)cn([C@@H](Cc2ccccc2)C(=O)O)c1=O)c1ccc(C(F)(F)F)cc1 [Compound 3]
Return: > 100 µM

Enquiry: Query IC50 on SPI1 type III protein secretion system (SipB secretion) for O=C(Nc1cc(-c2ccc(Oc3ccccc3)cc2)cn(C(Cc2ccc(Cl)cc2)C(=O)O)c1=O)c1ccc(C(F)(F)F)cc1 (centres unmarked) [Compound 18]
Return: > 100 µM

Enquiry: Query IC50 on SPI1 type III protein secretion system (SipB secretion) for O=C(Nc1cc(-c2ccc(-c3ccccc3)cc2)cn(C(Cc2ccc(Cl)cc2)C(=O)O)c1=O)c1ccc(-c2ccccc2)cc1 (centres unmarked) [Compound 47]
Return: 55 µM

Enquiry: Query IC50 on SPI1 type III protein secretion system (SipB secretion) for O=C(Nc1cc(-c2cccc(C(F)(F)F)c2)cn(C(Cc2ccc(Cl)cc2)C(=O)O)c1=O)c1ccc(-c2ccccc2)cc1 (centres unmarked) [Compound 22]
Return: 38.3 µM

Enquiry: Query IC50 on SPI1 type III protein secretion system (SipB secretion) for CC(=O)c1ccc(-c2cc(NC(=O)c3ccc(C(F)(F)F)cc3)c(=O)n(C(Cc3ccc(Cl)cc3)C(=O)O)c2)s1 (centres unmarked) [Compound 27]
Return: > 100 µM

Enquiry: Query IC50 on SPI1 type III protein secretion system (SipB secretion) for O=C(Nc1cc(-c2cccc3ccccc23)cn(C(Cc2ccc(Cl)cc2)C(=O)O)c1=O)c1ccc(C(F)(F)F)cc1 (centres unmarked) [Compound 19]
Return: > 100 µM

Enquiry: Query IC50 on SPI1 type III protein secretion system (SipB secretion) for CN(C)c1ccc(-c2cc(NC(=O)c3ccc(-c4ccccc4)cc3)c(=O)n(C(Cc3ccc(Cl)cc3)C(=O)O)c2)cc1 (centres unmarked) [Compound 40]
Return: 10.2 µM

Enquiry: Query IC50 on SPI1 type III protein secretion system (SipB secretion) for O=C(Nc1cc(-c2cccc(O)c2)cn(C(Cc2ccc(Cl)cc2)C(=O)O)c1=O)c1ccc(C(F)(F)F)cc1 (centres unmarked) [Compound 30]
Return: 33.4 µM

Enquiry: Query IC50 on SPI1 type III protein secretion system (SipB secretion) for O=C(Nc1cc(-c2cc(F)cc(F)c2)cn(C(Cc2ccc(Cl)cc2)C(=O)O)c1=O)c1ccc(-c2ccccc2)cc1 (centres unmarked) [Compound 36]
Return: > 100 µM

Enquiry: Query IC50 on SPI1 type III protein secretion system (SipB secretion) for O=Cc1ccc(-c2cc(NC(=O)c3ccc(C(F)(F)F)cc3)c(=O)n([C@@H](Cc3ccccc3)C(=O)O)c2)cc1 [Compound 5]
Return: > 100 µM

Enquiry: Query IC50 on SPI1 type III protein secretion system (SipB secretion) for O=C(Nc1cc(-c2ccc(Br)cc2)cn(C(Cc2ccc(Cl)cc2)C(=O)O)c1=O)c1ccc(-c2ccccc2)cc1 (centres unmarked) [Compound 37]
Return: > 100 µM

Enquiry: Query IC50 on SPI1 type III protein secretion system (SipB secretion) for O=C(Nc1cc(-c2cc3ccccc3s2)cn(C(Cc2ccc(Cl)cc2)C(=O)O)c1=O)c1ccc(C(F)(F)F)cc1 (centres unmarked) [Compound 26]
Return: > 100 µM

Enquiry: Query IC50 on SPI1 type III protein secretion system (SipB secretion) for O=C(Nc1cc(-c2ccc(Cl)c(Cl)c2)cn(C(Cc2ccc(Cl)cc2)C(=O)O)c1=O)c1ccc(-c2ccccc2)cc1 (centres unmarked) [Compound 34]
Return: 24.8 µM

Enquiry: Query IC50 on SPI1 type III protein secretion system (SipB secretion) for O=C(Nc1cc(-c2ccc(Cl)c(Cl)c2)cn(C(Cc2ccc(Cl)cc2)C(=O)O)c1=O)c1ccc(C(F)(F)F)cc1 (centres unmarked) [Compound 20]
Return: > 100 µM

Enquiry: Query IC50 on SPI1 type III protein secretion system (SipB secretion) for O=C(Nc1cc(-c2cccs2)cn(C(Cc2ccc(Cl)cc2)C(=O)O)c1=O)c1ccc(-c2ccccc2)cc1 (centres unmarked) [Compound 50]
Return: 27 µM

Enquiry: Query IC50 on SPI1 type III protein secretion system (SipB secretion) for O=C(Nc1cc(-c2ccc(Oc3ccccc3)cc2)cn(C(CSCc2ccccc2)C(=O)O)c1=O)c1ccc(C(F)(F)F)cc1 (stereo in doubt) [Compound 15]
Return: 67.9 µM

Enquiry: Query IC50 on SPI1 type III protein secretion system (SipB secretion) for O=C(Nc1cc(-c2ccc(Cl)cc2)cn(C(Cc2ccc(Cl)cc2)C(=O)O)c1=O)c1ccc(Oc2ccccc2)cc1 (centres unmarked) [Compound 52]
Return: > 100 µM

Enquiry: Query IC50 on SPI1 type III protein secretion system (SipB secretion) for O=C(Nc1cc(-c2cccc3ccccc23)cn(C(CSCc2ccccc2)C(=O)O)c1=O)c1ccc(C(F)(F)F)cc1 (stereo in doubt) [Compound 16]
Return: > 100 µM

Enquiry: Query IC50 on SPI1 type III protein secretion system (SipB secretion) for O=C(Nc1cc(-c2ccc(-c3ccccc3)cc2)cn([C@@H](Cc2ccccc2)C(=O)O)c1=O)c1ccc(C(F)(F)F)cc1 [Compound 2]
Return: > 100 µM

Enquiry: Query IC50 on SPI1 type III protein secretion system (SipB secretion) for CN(C)c1ccc(-c2cc(NC(=O)c3ccc(Oc4ccccc4)cc3)c(=O)n(C(Cc3ccc(Cl)cc3)C(=O)O)c2)cc1 (centres unmarked) [Compound 53]
Return: > 100 µM

Enquiry: Query IC50 on SPI1 type III protein secretion system (SipB secretion) for O=C(Nc1cc(-c2ccc(-c3ccccc3)cc2)cn(C(Cc2ccc(Cl)cc2)C(=O)O)c1=O)c1ccc(C(F)(F)F)cc1 (centres unmarked) [Compound 17]
Return: > 100 µM

Enquiry: Query IC50 on SPI1 type III protein secretion system (SipB secretion) for O=C(Nc1cc(-c2ccc3[nH]ccc3c2)cn(C(Cc2ccc(Cl)cc2)C(=O)O)c1=O)c1ccc(-c2ccccc2)cc1 (centres unmarked) [Compound 43]
Return: > 100 µM

Enquiry: Query IC50 on SPI1 type III protein secretion system (SipB secretion) for O=C(Nc1cc(-c2ccc(Oc3ccccc3)cc2)cn([C@@H](Cc2ccccc2)C(=O)O)c1=O)c1ccc(C(F)(F)F)cc1 [Compound 4]
Return: 84.7 µM

Enquiry: Query IC50 on SPI1 type III protein secretion system (SipB secretion) for O=C(Nc1cc(-c2ccc(O)cc2)cn(C(Cc2ccc(Cl)cc2)C(=O)O)c1=O)c1ccc(-c2ccccc2)cc1 (centres unmarked) [Compound 39]
Return: > 100 µM

Enquiry: Query IC50 on SPI1 type III protein secretion system (SipB secretion) for O=C(Nc1cc(-c2ccc(F)cc2F)cn(C(Cc2ccc(Cl)cc2)C(=O)O)c1=O)c1ccc(C(F)(F)F)cc1 (centres unmarked) [Compound 21]
Return: 79 µM
